Would you mind telling me the reported IC50 of each entry?
- System: MS751 cells
- ASSAY: MTT cell proliferation assay, MS751 cells
- Format: cell-based
- CONDITION_PARAMETERS: Homo sapiens, incubation approximately 64-72 hours

Recorded results for 4 molecules are shown here.
Nc1ccc(/C=C/C(=O)NCCOc2ccc(-c3cnc(C(=O)N4CCOCC4)nc3)cc2Cl)cn1	0.1 to 5 µM
CN(CCOc1ccc(-c2ccc(C(=O)N3CC(F)(F)C3)cc2)cc1Cl)C(=O)/C=C/c1ccc(N)nc1	0.1 to 5 µM
CC(C)(O)c1ccc(-c2ccc(OCCNC(=O)/C=C/c3ccc(N)nc3)c(Cl)c2)s1	0.1 to 5 µM
Nc1ccc(CNC(=O)/C=C/COc2ccc(-c3ccc(C(=O)N4CCC(F)(F)CC4)cn3)cc2C(F)(F)F)cn1	0.1 to 5 µM

Hey, can you go through the list below and give me IC50 for every item?
1. CC(=O)c1ccc(-c2ccc(OCCNC(=O)/C=C/c3cccnn3)c(Cl)c2)s1
2. CC(=O)c1ccc(-c2ccc(OCCNC(=O)/C=C/c3cccnc3C)c(Cl)c2)s1
3. CC(=O)c1ccc(-c2ccc(OCCNC(=O)/C=C/c3cccnc3Cl)c(Cl)c2)s1
4. CC(=O)c1ccc(-c2ccccc2OCCNC(=O)/C=C/c2cccnc2)s1

1: > 10 µM; 2: > 10 µM; 3: 5 to 10 µM; 4: 0.1 to 5 µM
